System: Rattus norvegicus
protocol text: The compound was tested for antihypertensive activity measured as maximal change in mean arterial blood pressure(MAP), after oral administration of 20 mg/kg of the compound.
Type: functional
Consider the cut-off -20%. If the recorded Change is strictly smaller, the label is YES; if not, the label is NO.

# molecule, class name
data = [
    ("CNC(=O)c1cc2c(s1)[C@@H](N1CCCCC1=O)[C@H](O)C(C)(C)O2.O", "YES"),
    ("CC1(C)Oc2cc([N+](=O)[O-])sc2[C@@H](N2CCNC2=O)[C@@H]1O", "NO"),
    ("CC1(C)Oc2cc([N+](=O)[O-])sc2[C@@H](N2CC(=O)NCC2=O)[C@@H]1O", "NO"),
    ("CC1(C)Oc2cc([N+](=O)[O-])sc2[C@@H](N2CCCCC2=O)[C@@H]1O (relative stereo)", "YES"),
    ("CC1(C)Oc2cc([N+](=O)[O-])sc2[C@@H](N2CCCCCC2=O)[C@@H]1O", "YES"),
    ("CN(C)C(=O)c1cc2c(s1)[C@@H](N1CCCCC1=O)[C@H](O)C(C)(C)O2", "YES"),
    ("CC1(C)Oc2cc([N+](=O)[O-])sc2[C@@H](n2ccccc2=O)[C@@H]1O", "YES"),
    ("CC1(C)Oc2cc([N+](=O)[O-])sc2[C@@H](N2CCCNC2=O)[C@@H]1O", "NO"),
    ("CC1(C)Oc2cc(C(=O)O)sc2[C@@H](N2CCCCC2=O)[C@@H]1O", "NO"),
    ("CC1(C)Oc2cc(C#N)sc2[C@@H](N2CCCCC2=O)[C@@H]1O", "YES"),
    ("CC1(C)Oc2ccsc2[C@@H](N2CCCCCC2=O)[C@@H]1O", "NO"),
]
